# Method: Cyclic voltammetry
# Type: physicochemical
# Particulars: anodic peak potential, 0.1 V/s
# Description: It is known that Fe^2+/Fe^3+ redox chemistry has an important role in the bioactivity of ferrocene derivatives.[33] […] We determined whether a similar correlation could be made for the mixed-ligand platinum(II) complexes reported herein given that metal centers have the potential to be oxidized and reduced. […] The anodic (Epa) and cathodic (Epc) peak potentials at 0.1 V/s and half-wave potentials (E1/2) were measured (Table 3). […]
Value kind: Epa1

>>> print(df.to_string())
                                   compound    result
0  CC(C)(C)c1ccnc(-c2cc(C(C)(C)C)ccn2)c1.OCCN(CCO)C(=S)N=C([O][Pt+])c1ccc(Cl)cc1.[Cl-] [C13]  –1.233 V
1  CC(C)(C)c1cc[n+]2c(c1)-c1cc(C(C)(C)C)cc[n+]1[Pt-2]21[O+]=C(c2ccccc2)N=C(N(CCO)CCO)[S]1.[Cl-] [C1]  –1.233 V
